Hello, the source for this data is PubChem BioAssay (NCI), in case you need it.

Experiment: NCI Yeast Anticancer Drug Screen. Data for the rad50 strain (AID 155);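 further: 0% = growth of vehicle-only cultures of the same strain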
Conditions: S. cerevisiae rad50 strain growth inhibition; at 50.0 µM; hits give high values
The panel holds about 79,000 compounds, 15% with a hit somewhere; the sample as a whole holds those more often.
// label = t if growth inhibition is not less than -10%, otherwise f

These solved cases illustrate the format of a correct answer.
Nc1ccc(-c2ccc(Nc3cc(S(=O)(=O)O)c(N)c4c3C(=O)c3ccccc3C4=O)cc2)c(S(=O)(=O)O)c1 | f
C=C1C(=O)OC2C=C(C)CC3C=C(CCC=C(C)CCC12)C(=O)O3 (stereo unspecified) | t
O=c1cccc(CCc2ccccc2)[nH]1 | t
NC(C(=O)O)C1C=CCCC1 (stereo unspecified) | f

Okay, now this molecule:
Check if growth inhibition >= -10% (inclusive). Item: `CC(=O)c1ccccn1` t

---

Experiment: NCI Yeast Anticancer Drug Screen. Data for the mlh1 rad18 strain (AID 175)
Conditions: S. cerevisiae mlh1 rad18 strain growth inhibition; at 50.0 µM; hits give high values
Compounds without any hit were thinned out: in the full panel of roughly 79,000, 15% have a hit.
endpoint: growth inhibition (%)
A number alone suffices; assume %.

Example entries begin here.
Clc1ccccc1OCc1cnc[nH]1 | -8.7
O=C(O)C12CC3(C(=O)O)CC(C(=O)O)(CC(C(=O)O)(C1)C3=O)C2=O | 17.3
COc1cc(NS(C)(=O)=O)ccc1Nc1c2ccc(N(C)C)cc2nc2cc(N(C)C)ccc12 | -9.85
C[N+]1(C)CCC(c2ccccc2)(c2ccccc2)C(O)C1 (stereo not given) | 1.5

Field: next molecule
I'd like to know its growth inhibition. The molecule in question is CC(C)[Si]1(C(C)C)OCC2OC(n3c(C(=O)c4ccccc4)cc(=O)[nH]c3=O)CC2O[Si](C(C)C)(C(C)C)O1 (stereo not given) 6.35

---

Assay: NCI Yeast Anticancer Drug Screen. Data for the mlh1 rad18 strain (AID 175)
Conditions: S. cerevisiae mlh1 rad18 strain growth inhibition; at 50.0 µM; hits give high values
This is part of a sample that, as a whole, favours compounds with a hit. Of some 79,000 tested, about 15% had one in any assay. Active and inactive are the calls of the source. Rule as the data show it: active = growth inhibition above about 70%; inactive = the rest.
This section presents compounds with their documented growth inhibition values.

O=C1c2ccccc2CC1(c1ccccc1)c1ccccc1 | -7.5% (inactive)
CCOc1ccc(OCC)c(N)c1 | -19.5% (inactive)
NC(=O)c1cn(Cc2ccccc2)c(=O)n1Cc1ccccc1 | 11.7% (inactive)
O=C(S)C(=O)Cc1cn[nH]n1 | -26.8% (inactive)

I'd like to know its growth inhibition. The compound in question is COc1cc(C2SCC(=O)N2c2ccc(-n3c(-c4ccccc4)nc4ccccc4c3=O)cc2)ccc1O (configuration not stated) 22% (inactive)

I'd like to know its growth inhibition. The compound in question is CS(=O)(=O)OC1CCC2CCCC1(C(=O)O)C2 (configuration not stated) 9.25% (inactive)

I'd like to know its growth inhibition. The compound in question is `S=C(Nc1ccccc1)Nc1nc(-c2ccccc2)c(N=Nc2ccccc2)s1` 2% (inactive)

I'd like to know its growth inhibition. The compound in question is COc1ccccc1NC(=O)CC(=O)N1N=C(C)C(N=Nc2ccc(S(N)(=O)=O)cc2)C1=O (configuration not stated) 11.3% (inactive)

I'd like to know its growth inhibition. The compound in question is `O=C(NN=C1CCCCC1)NN=C1CCCCC1` -0.4% (inactive)

I'd like to know its growth inhibition. The compound in question is `CCOC(=O)c1ccc(C#N)cc1` 5.45% (inactive)

I'd like to know its growth inhibition. The compound in question is O=C1CCC(c2ccccc2)(C2CCN(Cc3ccc(F)cc3)CC2)C(=O)N1 (configuration not stated) 4.8% (inactive)

I'd like to know its growth inhibition. The compound in question is `Clc1ccc(CSc2cnnc3c(Br)cccc23)c(Cl)c1` 0.85% (inactive)
